Taken from patent US8338414B2.

Listing of entries alongside the reported melting point.

{"columns": ["record.smiles", "melting point"],
 "data": [
  ["Cc1cc2nc(C(F)F)n(-c3nc(N4CCOCC4)nc(N4CCOCC4)n3)c2cc1C", "217 to 220 °C"],
  ["Cc1nc2ccccc2n1-c1nc(N2CCOCC2)nc(N2CCOCC2)n1", "218 to 220 °C (dec.)"],
  ["CCC(=O)N1CCN(c2nc(N3CCOCC3)nc(-n3c(C(F)F)nc4ccccc43)n2)CC1", "198 to 202 °C"]
]}

Now let's try a different one.
// lookup melting point for "COc1cccc2c1nc(C(F)F)n2-c1nc(N2CCOCC2)cc(N2CCOC(C)(C)C2)n1" 166 to 168 °C
